target under test: Cytochrome P450 2A6 (Homo sapiens); note: in other assays of this panel Not Active means under 50% inhibition at 10 µM
Sequence (P11509 whole entry): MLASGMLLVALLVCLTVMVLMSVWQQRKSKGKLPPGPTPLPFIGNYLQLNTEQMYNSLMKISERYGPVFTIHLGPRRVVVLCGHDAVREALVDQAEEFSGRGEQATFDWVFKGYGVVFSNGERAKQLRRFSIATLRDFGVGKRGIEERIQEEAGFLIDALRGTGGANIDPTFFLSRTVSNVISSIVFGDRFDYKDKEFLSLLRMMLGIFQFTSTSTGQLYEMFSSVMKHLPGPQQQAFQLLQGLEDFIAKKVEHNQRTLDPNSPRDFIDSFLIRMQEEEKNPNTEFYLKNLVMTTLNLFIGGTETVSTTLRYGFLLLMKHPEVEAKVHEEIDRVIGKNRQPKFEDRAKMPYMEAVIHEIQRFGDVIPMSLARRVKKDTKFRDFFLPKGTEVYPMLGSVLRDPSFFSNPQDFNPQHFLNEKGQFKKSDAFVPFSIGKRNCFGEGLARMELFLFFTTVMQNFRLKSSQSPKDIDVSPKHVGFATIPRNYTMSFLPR
measurement setup: bti-tn-5b1-4
measured attribute: IC50

A selection of reference data follows.
compound | IC50
CC(=O)[C@@]1(O)CC[C@H]2[C@@H]3C[C@H](C)C4=CC(=O)CC[C@]4(C)[C@H]3CC[C@@]21C | Not Active
CC(C)(Oc1ccc(Cl)cc1)C(=O)O [CLOFIBRIC ACID] | Not Active
Cc1oncc1C(=O)Nc1ccc(C(F)(F)F)cc1 [LEFLUNOMIDE] | Not Active
CC1Cc2ccccc2N1NC(=O)c1ccc(Cl)c(S(N)(=O)=O)c1 (stereo not given) [INDAPAMIDE] | Not Active

Turning to the following compound.
Give the measured IC50 for CCOC(=O)N1CCC(=C2c3ccc(Cl)cc3CCc3cccnc32)CC1 [LORATADINE]
Not Active

---

method: DRUGMATRIX: Leukotriene, BLT (LTB4) radioligand binding (ligand: [3H]LTB4)
Format: cell membranes, Membrane
measurement setup: u-937; Not Active = under 50% inhibition at 10 µM; read-out: Ki
measured attribute: pKi
Remember, pKi is on a log scale: it is -log10 of the molar concentration.

Determine from records and report pKi for CC(C)N1CCN(c2ccc(OCC3COC(Cn4cncn4)(c4ccc(Cl)cc4Cl)O3)cc2)CC1 (stereo unspecified) [TERCONAZOLE]
5.20

---

method: DRUGMATRIX: GABAA, Flunitrazepam, Central radioligand binding (ligand: [3H] Flunitrazepam)
Type: cell membranes, Rattus norvegicus, Wistar, Brain, Membrane
measurement setup: Not Active = under 50% inhibition at 10 µM
measured attribute: Ki

Examples with answers:
molecule | Ki
c1ccc([C@H]2CN3CCSC3=N2)cc1 [LEVAMISOLE] | Not Active
CC1(C)O[C@@H]2C[C@H]3[C@@H]4CCC5=CC(=O)C=C[C@]5(C)[C@@]4(F)[C@@H](O)C[C@]3(C)[C@]2(C(=O)CO)O1 [TRIAMCINOLONE ACETONIDE] | Not Active
NCCCCCC(=O)O [AMINOCAPROIC ACID] | Not Active
Cc1ccc(-c2cc(C(F)(F)F)nn2-c2ccc(S(N)(=O)=O)cc2)cc1 [CELECOXIB] | Not Active
CN(C)CCCN1c2ccccc2Sc2ccc(Cl)cc21 [CHLORPROMAZINE] | Not Active

Now let's try a different one.
Look up and state reported Ki for NC1=NC(=O)C(c2ccccc2)O1 (configuration not stated) [PEMOLINE]
Not Active

---

target under test: Voltage-gated inwardly rectifying potassium channel KCNH2 (Homo sapiens, UniProt Q12809); note: in other assays of this panel Not Active means under 50% inhibition at 10 µM
Sequence (Q12809 whole entry): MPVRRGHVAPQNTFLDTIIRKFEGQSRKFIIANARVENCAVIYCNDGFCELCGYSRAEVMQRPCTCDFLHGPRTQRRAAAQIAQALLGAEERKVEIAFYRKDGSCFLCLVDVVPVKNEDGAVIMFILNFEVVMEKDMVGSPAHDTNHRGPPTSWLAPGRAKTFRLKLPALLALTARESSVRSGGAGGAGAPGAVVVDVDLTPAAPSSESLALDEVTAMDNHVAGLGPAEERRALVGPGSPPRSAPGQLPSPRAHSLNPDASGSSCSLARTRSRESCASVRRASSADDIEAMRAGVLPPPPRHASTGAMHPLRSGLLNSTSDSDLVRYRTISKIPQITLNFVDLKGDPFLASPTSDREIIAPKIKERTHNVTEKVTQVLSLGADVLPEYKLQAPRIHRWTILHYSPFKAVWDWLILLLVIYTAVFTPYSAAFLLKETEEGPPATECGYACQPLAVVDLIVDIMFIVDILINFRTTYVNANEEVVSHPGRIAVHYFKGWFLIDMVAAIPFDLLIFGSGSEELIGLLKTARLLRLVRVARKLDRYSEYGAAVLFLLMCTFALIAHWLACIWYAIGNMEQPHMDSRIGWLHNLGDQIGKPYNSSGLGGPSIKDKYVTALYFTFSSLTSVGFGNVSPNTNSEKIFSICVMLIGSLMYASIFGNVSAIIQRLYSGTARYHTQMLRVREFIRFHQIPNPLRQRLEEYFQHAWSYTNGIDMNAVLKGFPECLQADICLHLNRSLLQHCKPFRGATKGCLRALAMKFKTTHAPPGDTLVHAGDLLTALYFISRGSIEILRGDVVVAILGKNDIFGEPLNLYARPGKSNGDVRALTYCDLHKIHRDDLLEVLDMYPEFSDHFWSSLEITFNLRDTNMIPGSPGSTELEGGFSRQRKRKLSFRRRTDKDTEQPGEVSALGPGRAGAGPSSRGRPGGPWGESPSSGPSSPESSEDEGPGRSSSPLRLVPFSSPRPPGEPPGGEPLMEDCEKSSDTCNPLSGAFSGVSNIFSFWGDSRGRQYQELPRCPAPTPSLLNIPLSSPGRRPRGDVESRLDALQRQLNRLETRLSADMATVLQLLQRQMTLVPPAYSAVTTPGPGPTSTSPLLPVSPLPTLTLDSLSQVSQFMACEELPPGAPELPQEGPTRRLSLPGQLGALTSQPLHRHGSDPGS
measured attribute: IC50 (µM)
Answer with a number only, understood to be in µM.

Recall the reported IC50 of C[C@@H]1CN(c2c(F)c(N)c3c(=O)c(C(=O)O)cn(C4CC4)c3c2F)C[C@H](C)N1 on Voltage-gated inwardly rectifying potassium channel KCNH2 (Homo sapiens, UniProt Q12809) and write it down.
47.1

---

target under test: Mitogen-activated protein kinase 3 (Homo sapiens)
Sequence (P27361 whole entry): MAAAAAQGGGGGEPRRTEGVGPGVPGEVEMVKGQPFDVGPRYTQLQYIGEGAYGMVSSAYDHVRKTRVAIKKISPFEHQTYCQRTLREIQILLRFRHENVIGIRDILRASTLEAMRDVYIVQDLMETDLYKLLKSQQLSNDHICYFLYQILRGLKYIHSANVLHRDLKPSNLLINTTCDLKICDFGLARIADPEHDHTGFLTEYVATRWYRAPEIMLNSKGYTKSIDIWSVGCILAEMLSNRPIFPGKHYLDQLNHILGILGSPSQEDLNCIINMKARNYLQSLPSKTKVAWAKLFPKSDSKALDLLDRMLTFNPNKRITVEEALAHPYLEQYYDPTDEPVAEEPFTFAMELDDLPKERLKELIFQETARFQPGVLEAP
method: DRUGMATRIX: Protein Serine/Threonine Kinase, ERK1 enzyme inhibition (substrate: Myelin Basic Protein)
Design: species or system Escherichia coli
measurement setup: Not Active = under 50% inhibition at 10 µM
measured attribute: Ki

substance | measured attribute | measured result
SODIUM NITROPRUSSIDE | Ki | Not Active
LEAD (II) ACETATE | Ki | Not Active
LIPOPOLYSACCHARIDE E. COLI O55:B5 | Ki | Not Active
CADMIUM ACETATE | Ki | Not Active
